test system: FXR:RXRa (NR concentration 270 nM, RXRa partner concentration 90 nM); assay: PBM binding z-score (relative to random genomic background probes); higher = stronger binding; sequences stand for … in GC…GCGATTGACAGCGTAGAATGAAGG
metric: PBM binding z-score
Note: the reply should be a number with no unit written.

seq	PBM binding z-score
AGAACGAAGGCAATGAGTTGATAGCACGGGTGGC	-0.744

Return PBM binding z-score for the following sequence: CCAGACAGGTCAAAGGTAACTCAGTCTGGTACGC
6.4

Return PBM binding z-score for the following sequence: ATCTCAAGGTAACCAAGTTCAGTGAATGCCGAAC
0.76

Return PBM binding z-score for the following sequence: CGAGCTAGGTCATTGACAGGACAGTGAATAGTAA
5.01

Return PBM binding z-score for the following sequence: ACTAGCAGGCCAAGGGTCATTCAAGATTAGTCCG
3.35

Return PBM binding z-score for the following sequence: CATACAGGGTCAGCTAGACCAGAGTAGGGACGGC
4.47

----------
Measured PBM binding z-score of individual entries
system: PPARg homodimer (NR concentration 180 nM); assay: PBM binding z-score (relative to random genomic background probes); higher = stronger binding; sequences stand for … in GC…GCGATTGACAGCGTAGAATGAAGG
Note: the reply should be a number with no unit written.

Recorded PBM binding z-score, per entry:
seq	metric	numericReadout
ATCACTAGGTAAGACTCAGTTCAGTGAAGAACGC	PBM binding z-score	0.437
AATACAGGGTCATCGTAGCCCAGAGTACGCACAG	PBM binding z-score	2.47
CCTTACGGGTCGCGAGGTTATAGCACGACGAGCG	PBM binding z-score	1.41
GTTACAGGGTCAGCTAGAGGCCAGAGTATGGAAA	PBM binding z-score	2.41
TCATATAGGTAAAGGTGACAGTCGAACGATATGA	PBM binding z-score	0.889

Return PBM binding z-score for the following sequence: ATCTCTAGGTAACAAATTCAGTGAAAGAGAGGAC
0.744

Return PBM binding z-score for the following sequence: CCTCGGAGGACAACAGGAGGTCAGTGCTGCCAGA
0.702

----------
test system: THRa homodimer (NR concentration 90 nM); experiment: PBM binding z-score (relative to random genomic background probes); higher = stronger binding; sequences stand for … in GC…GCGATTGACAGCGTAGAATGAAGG
Measured PBM binding z-score of individual entries

Return PBM binding z-score for the following sequence: AGGCAAAGTTCACTAGGTAACGTAAGATTCAGCT
0.37

Return PBM binding z-score for the following sequence: GTACCAAGGTGAATAGGTCGTTGCTGAGTAGGCG
0.155

Return PBM binding z-score for the following sequence: ACTCGGAGGACAAAAGTCAGAGCTACGCCAGTGA
-0.517

Return PBM binding z-score for the following sequence: CGAACTGGGTCATCCAGGACAGTGAATACATTGA
1.25

Return PBM binding z-score for the following sequence: TCTCGGAGGATACGAAGGTCAGAGCTTTCCAGAG
-0.156

Return PBM binding z-score for the following sequence: ATCTCTAGGTAAGACTCAGTTTAGTGAAGAACGC
0.619

----------
tested on: PPARa:RXRa (NR concentration 270 nM, RXRa partner concentration 90 nM); assay: PBM binding z-score (relative to random genomic background probes); higher = stronger binding; sequences stand for … in GC…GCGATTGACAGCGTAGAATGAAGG
Response key: YES means PBM binding z-score >= 1; NO means PBM binding z-score < 1.

seq	label
AGTTAAAGTTCACTAGGTAACGTAAGATTCAGCT	YES
TCTAGTTGGTCACGGATGTCACACACGACGGGTA	YES

Hi team, for CCTATTGGTTGACCATAAGGGCAACCGAAGCTCG , is the recorded PBM binding z-score at or above 1?
NO

Hi team, for ACTAGTAGTTGAGACGAGGGCAACCGATAGGTTG , is the recorded PBM binding z-score at or above 1?
NO

Hi team, for TCTTGTAGATCAAAGGTTAGGAAAGCCGAAGCCT , is the recorded PBM binding z-score at or above 1?
YES

Hi team, for AGAATGAGGTTAAGATCAGGCAAACAGAATACAT , is the recorded PBM binding z-score at or above 1?
YES

Reference source for all entries: the supplement of paper PMC6555819
